Tested on: OVCAR-3
ASSAY PROTOCOL: NCI tumour cell line growth inhibition, 48 h
Activity calls are given as the source filed them. Cut-off read from the data, not from the text of the source: active = GI50 up to about 1.1 µM and inactive = higher.
GI50 overview

Previously resolved entries follow.
CCOC(=O)c1c(O)nc2cccc3c2c1-c1cccnc1S3 | 28.6 µM (inactive)
CCCCCC(C)(C)CCC(=O)OC1OC(COC2OC(COC3OC(CO)C(O)C(O)C3O)C(O)C(O)C2O)C(O)C(O)C1O (stereo not given) | > 100 µM (inactive)
O=C(Cn1c2ccc(Br)cc2c2nc3ccccc3nc21)Nc1ccccc1 | > 100 µM (inactive)

What value of GI50 has been reported for the following compound? "Nc1nc(=O)n([C@@H]2CC[C@H](CO)O2)cc1F" > 100 µM (inactive)

What about this compound? CC(C(N)=O)N(C)C(=O)c1cc2ccccc2[n+](Cc2ccccc2)c1 (stereo not given) > 100 µM (inactive)

What about this compound? "O=C1C(=C(C(=O)c2ccccc2)C(=O)c2ccccc2)OC(c2ccccc2)=C1C(=O)c1ccccc1" 5.86 µM (inactive)

====

Test system: HCT-116
ASSAY PROTOCOL: NCI tumour cell line growth inhibition, 48 h
Active and inactive are the calls of the source. Cut-off read from the data, not from the text of the source: active = GI50 up to about 1.1 µM and inactive = higher.
// classify into active, inactive

Known results for molecules:
N#Cc1cc([N+](=O)[O-])ccc1NC(=O)/C(=N/N)C(C(=O)c1ccc(Cl)c(Cl)c1)C1OC(=O)c2ccccc21 (stereo not given) | inactive
O=C1/C(=C/c2ccccc2)N=C2Sc3c([nH]cnc3=O)N12 | inactive
CC(=O)O[C@H]1C(=O)[C@@]2(C)C(C(OC(=O)c3ccccc3)[C@]3(O)CC(OC(=O)C(O)C(NC(=O)c4ccccc4)c4ccc(C)cc4)C(C)=C1C3(C)C)[C@]1(OC(C)=O)CO[C@@H]1C[C@@H]2O (stereo not given in full) | active
CNC(=O)C1CCc2nnc(-c3ccccc3)n21 (stereo not given) | inactive
COC(=O)c1c[nH]cc1CCc1c[nH]cc1C(=O)OC | inactive
Cc1cc(O)c(C(c2cccnc2)c2c(O)cc(C)[nH]c2=O)c(=O)[nH]1 | inactive
NN/C(=N\S(=O)(=O)c1cccc2nsnc12)Nc1ccc(Cl)cc1 | inactive
CN1CCN(C(=S)N2CCN(C)CC2)CC1 | inactive
Cc1nc2cn3c(c2c(=O)[nH]1)CCCCC3 | inactive
CCCC(=O)n1[nH]c(=O)n(C(C)(C)C)c1=O | inactive

Check the results log: what was the call for COC(=O)C(=O)C(C(C)=O)C(=O)C(=O)Nc1ccc(C)cc1C (stereo not given) ? inactive

====

Tested on: CAKI-1
ASSAY PROTOCOL: NCI tumour cell line growth inhibition, 48 h
Activity calls are given as the source filed them. Rule as the data show it: active = GI50 up to about 1.1 µM and inactive = higher.
// classify into active, inactive

Known results for molecules:
S=C1CNC(=S)CN1 | inactive
CN1C2(c3ccccc3)c3c(-c4ccccc4)sc(-c4ccccc4)c3C1(c1ccccc1)C1C(=O)N(c3ccccc3)C(=O)C12 (centres undefined) | inactive
NC(=O)c1ncn2c1NC(=O)CC2 | inactive
CC1=CC(=O)[C@@H](O)[C@]2(C)[C@H]3[C@@]4(O)OC[C@]35[C@H]([C@@H](C)[C@H]4O)[C@@H](OC(=O)C(C)(C)CO)C(=O)O[C@@H]5C[C@@H]12 | active
CC(=O)O[C@@H]1C2=C(C3=C([O-])C4=CC=CC(=O)C4C(=O)C3=C2[N+]#N)[C@H](OC(C)=O)[C@@H](OC(C)=O)[C@]1(C)O (some centres undefined) | active
CCCCCCCCCC1(N=[N+]=[N-])C(=O)c2ccccc2N(C)C1=O (centres undefined) | inactive

Check the results log: what was the call for "N/C(CSCCSC/C(N)=N/O)=N\O" ? inactive

What about this molecule? CCCCc1ccc(Nc2nc(Cl)c3ccn(C4CC(Oc5ccc(C)cc5)C(COc5ccc(C)cc5)O4)c3n2)cc1 (centres undefined) inactive

What about this molecule? "COc1ccc2c(c1)c(CC(=O)O)c(C)n2C(=O)c1ccc(Cl)cc1" inactive

What about this molecule? "Cc1ccc(N2C(=O)/C(=C/c3ccc(N(CCC#N)CCC#N)cc3C)N=C2c2cc([N+](=O)[O-])ccc2Cl)cc1" inactive

What about this molecule? COc1ccc2c3c1OC1C4(CCC5C(C2)N(CC2CC2)CCC351)OCCO4 (centres undefined) inactive

What about this molecule? O=C(O)Cc1cccc2c1OC(c1ccccc1)C(C(=O)c1ccccc1)C2=O (centres undefined) inactive

The measured values listed here are drawn from ChEMBL document CHEMBL1201862.
